molecular target: Fatty-acid amide hydrolase 1 (Rattus norvegicus, UniProt P97612); assay: Inhibition of rat FAAH expressed in HEK293 cells by LC/MS analysis; type: cell-based
pIC50: −log10 of the molar value.
Endpoint label: pIC50

Cpd smiles: O=C(CCc1ccc(-c2ccccc2)cc1)N1CCCC1
Measurement: < 4.00

###

target: Monoglyceride lipase (Mus musculus, UniProt O35678); experiment: Inhibition of mouse MAGL
Sequence (O35678 whole entry): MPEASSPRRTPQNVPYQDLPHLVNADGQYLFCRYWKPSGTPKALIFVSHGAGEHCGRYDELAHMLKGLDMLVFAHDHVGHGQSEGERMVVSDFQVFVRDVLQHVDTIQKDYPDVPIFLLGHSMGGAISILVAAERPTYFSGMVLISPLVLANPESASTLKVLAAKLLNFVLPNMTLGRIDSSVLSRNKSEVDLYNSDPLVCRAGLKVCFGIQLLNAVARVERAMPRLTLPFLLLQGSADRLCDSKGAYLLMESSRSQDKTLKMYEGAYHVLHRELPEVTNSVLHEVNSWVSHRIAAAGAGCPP
pIC50: −log10 of the molar value.
The following compounds are shown together with reported pIC50 values.

Cpd smiles: O=C(N1CCN(C(c2ccc(F)cc2)c2ccc(F)cc2)CC1)n1cncn1
pIC50: 9.66
//
Cpd smiles: O=C(N1CCC(C(c2ccc3c(c2)OCO3)c2ccc3c(c2)OCO3)CC1)n1cncn1
pIC50: 9.56
//
Cpd smiles: O=C(N1CCN(C(c2ccccc2)c2ccccc2)CC1)n1cncn1
pIC50: 9.51
//
Cpd smiles: O=C(N1CCC(=C(c2ccc3c(c2)OCO3)c2ccc3c(c2)OCO3)CC1)n1cncn1
pIC50: 9.72
//
Cpd smiles: O=C(Oc1ccc([N+](=O)[O-])cc1)N1CCN(C(c2ccc(F)cc2)c2ccc(F)cc2)CC1
pIC50: 6.55
//
Cpd smiles: O=C(N1CCN(C(c2ccccc2)c2ccccc2)CC1)n1ccnc1
pIC50: 5.59

###

assay: Half life in rat plasma; format: ADME, cell-free

Cpd smiles: O=C(CCCCCc1ccccc1)N1CCOC1=O
half-life: 3.33 h

###

biological target: Fatty-acid amide hydrolase 1 (Mus musculus); assay: Inhibition of CD1 mouse FAAH
Sequence (O08914 whole entry): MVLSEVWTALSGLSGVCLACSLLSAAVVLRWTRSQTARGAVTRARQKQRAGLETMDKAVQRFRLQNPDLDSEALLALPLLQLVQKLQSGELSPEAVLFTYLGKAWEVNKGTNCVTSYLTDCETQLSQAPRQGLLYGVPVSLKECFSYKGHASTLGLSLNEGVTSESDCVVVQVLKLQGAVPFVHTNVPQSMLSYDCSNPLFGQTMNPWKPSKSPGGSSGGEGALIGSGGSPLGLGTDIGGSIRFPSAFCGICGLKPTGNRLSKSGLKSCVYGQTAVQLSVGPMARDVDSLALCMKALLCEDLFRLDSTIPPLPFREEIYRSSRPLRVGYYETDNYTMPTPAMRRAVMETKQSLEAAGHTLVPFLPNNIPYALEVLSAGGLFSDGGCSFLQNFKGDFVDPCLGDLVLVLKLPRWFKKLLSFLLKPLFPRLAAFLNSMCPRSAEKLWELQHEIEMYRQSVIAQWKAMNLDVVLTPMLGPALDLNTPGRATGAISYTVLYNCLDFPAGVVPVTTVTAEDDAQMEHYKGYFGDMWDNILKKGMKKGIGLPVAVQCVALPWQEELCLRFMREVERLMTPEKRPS

Cpd smiles: C=C(OC(=O)N1CCCCC1)c1ccc(-c2ccccc2)cc1
IC50, nM: 9

###

target: Monoglyceride lipase (Rattus norvegicus); experiment: Inhibition of rat MAGL
pIC50: −log10 of the molar value.
We use 9 as the dividing line for pIC50: on or above the line is y, below is n.

Cpd smiles: O=C(N1CCC(=C(c2ccc3c(c2)OCO3)c2ccc3c(c2)OCO3)CC1)n1cncn1
Label class: y

Cpd smiles: O=C(Oc1ccc([N+](=O)[O-])cc1)N1CCN(C(c2ccc(F)cc2)c2ccc(F)cc2)CC1
Label class: n

Cpd smiles: O=C(N1CCC(C(c2ccc3c(c2)OCO3)c2ccc3c(c2)OCO3)CC1)n1cncn1
Label class: y

Cpd smiles: O=C(N1CCN(C(c2ccccc2)c2ccccc2)CC1)n1ccnc1
Label class: n

###

assay: Half life in pH 7.4 buffer; type: physicochemical

Cpd smiles: O=C(CCCCCc1ccccc1)N1CCOC1=O
half-life: > 24 h

###

The following molecules are shown together with reported IC50 values.
Biological target: Monoglyceride lipase (Homo sapiens, UniProt Q99685)
Sequence (Q99685 whole entry): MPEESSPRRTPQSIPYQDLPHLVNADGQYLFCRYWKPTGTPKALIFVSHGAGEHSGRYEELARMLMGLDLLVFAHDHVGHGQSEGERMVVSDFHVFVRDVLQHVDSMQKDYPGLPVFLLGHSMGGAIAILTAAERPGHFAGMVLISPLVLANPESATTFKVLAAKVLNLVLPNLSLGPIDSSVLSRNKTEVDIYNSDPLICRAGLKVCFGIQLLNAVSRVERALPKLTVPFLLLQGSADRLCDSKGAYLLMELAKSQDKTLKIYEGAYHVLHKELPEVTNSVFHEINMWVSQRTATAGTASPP
Test: Inhibition of recombinant human N-terminal His6-tagged and C-terminal Strep-tagged MAGL expressed in Escherichia coli Rosetta using [3H]2-OG as substrate after 10 mins by liquid scintillation counting method

Cpd smiles: CCN(CC)C(=S)SSC(=S)N(CC)CC
IC50 [nM]: 360
//
Cpd smiles: c1ccc(SSc2ccccc2)cc1
IC50 [nM]: 1600

###

The following compounds are shown together with reported IC50 values.
biological target: Cannabinoid receptor 1 (Homo sapiens, UniProt P21554); assay: Antagonist activity at CB1R (unknown origin); format: functional
Sequence (P21554 whole entry): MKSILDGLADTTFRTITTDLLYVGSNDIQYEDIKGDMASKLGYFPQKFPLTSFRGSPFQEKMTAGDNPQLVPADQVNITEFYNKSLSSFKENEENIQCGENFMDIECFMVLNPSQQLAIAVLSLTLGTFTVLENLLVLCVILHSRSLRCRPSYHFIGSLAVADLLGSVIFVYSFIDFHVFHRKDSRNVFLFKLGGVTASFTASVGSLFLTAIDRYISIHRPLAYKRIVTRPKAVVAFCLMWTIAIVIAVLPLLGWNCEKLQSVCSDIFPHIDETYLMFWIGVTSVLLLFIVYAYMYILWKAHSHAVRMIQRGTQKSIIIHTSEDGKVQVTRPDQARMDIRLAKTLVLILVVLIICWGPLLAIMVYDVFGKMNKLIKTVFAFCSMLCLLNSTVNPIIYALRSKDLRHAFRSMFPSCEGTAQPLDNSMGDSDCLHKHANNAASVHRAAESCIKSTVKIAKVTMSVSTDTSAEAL

Cpd smiles: COc1cc(NC(=O)C(=O)c2c(C)n(Cc3ccc(Cl)cc3)c3ccc(C)cc23)ccn1
IC50: > 1 µM

Cpd smiles: CCCCCCCCCCCCCCCN=C=S
IC50: > 10 µM

###

experiment: Half life in mouse plasma; type: ADME, cell-free
Endpoint label: half-life

Cpd smiles: O=C(CCc1ccccc1)N[C@H]1COC1=O
Measurement: < 1 min

###

biological target: Monoglyceride lipase (Homo sapiens); experiment: Inhibition of recombinant human full length MAGL expressed in HEK293 cells preincubated for 30 mins followed by FP-Rh addition after 30 mins by gel-based ABPP assay; type: cell-based

Cpd smiles: O=C(OC(C(F)(F)F)C(F)(F)F)N1CCN(Cc2cccc(Oc3ccccc3)c2)CC1
IC50: 3.7 nM

###

The following molecules are shown together with reported pIC50 values.
Molecular target: N-acylethanolamine-hydrolyzing acid amidase (Homo sapiens, UniProt Q02083)
Sequence (Q02083 whole entry): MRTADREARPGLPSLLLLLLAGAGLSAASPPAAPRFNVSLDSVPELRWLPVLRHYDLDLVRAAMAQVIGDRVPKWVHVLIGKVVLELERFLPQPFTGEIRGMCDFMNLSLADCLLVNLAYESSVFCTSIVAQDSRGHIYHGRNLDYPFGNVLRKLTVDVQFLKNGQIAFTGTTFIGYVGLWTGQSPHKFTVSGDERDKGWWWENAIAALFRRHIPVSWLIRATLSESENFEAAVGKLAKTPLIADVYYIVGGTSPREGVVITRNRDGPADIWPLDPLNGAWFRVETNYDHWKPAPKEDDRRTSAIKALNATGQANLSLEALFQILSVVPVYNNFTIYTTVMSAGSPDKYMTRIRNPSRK
Assay: Inhibition of recombinant human NAAA expressed in HEK293 cells preincubated for 10 mins followed by PAMCA substrate addition after 30 mins by fluorescence assay
Type: cell-based
Details: hek293
pIC50: −log10 of the molar value.

Cpd smiles: CCCCCCCCCCC(=O)N[C@H]1CNC1=O
Target of assay: N-acylethanolamine-hydrolyzing acid amidase (Homo sapiens, UniProt Q02083)
pIC50: 7.00

Cpd smiles: CCCCCCCCCC(=O)N[C@H]1CNC1=O
Target of assay: N-acylethanolamine-hydrolyzing acid amidase (Homo sapiens, UniProt Q02083)
pIC50: 6.62

###

Target: Fatty-acid amide hydrolase 1 (Rattus norvegicus)
Sequence (P97612 whole entry): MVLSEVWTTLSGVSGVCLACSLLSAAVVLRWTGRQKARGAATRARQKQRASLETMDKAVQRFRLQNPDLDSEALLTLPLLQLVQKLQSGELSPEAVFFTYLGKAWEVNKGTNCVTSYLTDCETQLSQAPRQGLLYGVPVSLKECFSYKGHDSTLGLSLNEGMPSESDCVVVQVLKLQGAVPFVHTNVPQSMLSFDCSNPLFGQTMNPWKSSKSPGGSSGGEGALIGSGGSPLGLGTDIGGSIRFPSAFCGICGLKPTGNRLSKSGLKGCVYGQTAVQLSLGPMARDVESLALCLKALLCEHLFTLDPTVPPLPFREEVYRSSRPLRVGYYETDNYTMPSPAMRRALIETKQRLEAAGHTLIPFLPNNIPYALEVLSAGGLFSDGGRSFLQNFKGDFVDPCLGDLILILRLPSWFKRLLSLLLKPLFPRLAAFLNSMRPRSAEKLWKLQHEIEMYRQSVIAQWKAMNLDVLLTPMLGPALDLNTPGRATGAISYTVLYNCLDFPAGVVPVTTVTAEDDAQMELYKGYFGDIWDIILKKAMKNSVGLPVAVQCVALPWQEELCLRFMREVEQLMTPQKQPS
The following molecules are shown together with reported Ki values.
Endpoint label: Ki (nM)

Cpd smiles: O=C(CCCCCCCCc1ccccc1)c1nc2ncccc2o1
Endpoint label: Ki
Measurement: 0.52
//
Cpd smiles: O=C(CCCCCCCc1ccccc1)c1nc2ncccc2o1
Endpoint label: Ki
Measurement: 0.39
//
Cpd smiles: CCCCCCCCCC(=O)c1nc2ncccc2o1
Endpoint label: Ki
Measurement: 0.75

###

biological target: N-acylethanolamine-hydrolyzing acid amidase (Homo sapiens, UniProt Q02083); assay: Time dependent inhibition of recombinant human NAAA expressed in HEK293 cell membranes using [14C]-PEA as substrate by liquid scintillation counting method

Compound: CC(=O)Oc1cccc2c1C(=O)c1c(OC(C)=O)cc(C(=O)O)cc1C2=O [DIACEREIN]
IC50: 0.7 to 7.2 µM

###

Target: Monoglyceride lipase (Rattus norvegicus, UniProt Q8R431)
Sequence (Q8R431 whole entry): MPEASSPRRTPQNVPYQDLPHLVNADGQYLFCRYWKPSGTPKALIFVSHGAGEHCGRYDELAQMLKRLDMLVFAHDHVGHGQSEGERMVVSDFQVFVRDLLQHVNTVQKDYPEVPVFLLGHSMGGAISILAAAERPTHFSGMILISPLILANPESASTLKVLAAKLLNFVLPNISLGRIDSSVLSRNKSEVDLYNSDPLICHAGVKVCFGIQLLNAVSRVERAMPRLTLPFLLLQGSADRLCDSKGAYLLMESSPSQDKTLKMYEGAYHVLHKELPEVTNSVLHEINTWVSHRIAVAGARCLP
Test: Inhibition of rat MAGL preincubated for 30 mins followed by FP-Rh addition after 30 mins by gel-based ABPP assay
pIC50: −log10 of the molar value.

Cpd smiles: O=C(OC(C(F)(F)F)C(F)(F)F)N1CCN(Cc2cccc(Oc3ccccc3)c2)CC1
pIC50: 7.85
--
Cpd smiles: O=C(OC(C(F)(F)F)C(F)(F)F)N1CCC(C(O)(c2ccc3c(c2)OCO3)c2ccc3c(c2)OCO3)CC1
pIC50: 7.37
--
Cpd smiles: CN(Cc1cccc(-c2ccncc2)c1)C(=O)OC(C(F)(F)F)C(F)(F)F
pIC50: 6.41
